test system: mice; assay: Acute toxicity: administration amount causing acute death to mice; type: in vivo; conditions: mouse, in vivo, ip
Where a name gives a salt, the structure may show the parent alone.
reportedMetric: Administration amount causing acute death to mice

compound | testedSystem | result
N=C(N)Nc1ccc(CCCC(=O)N[C@@H](CO)C(=O)NCCCCNCCCNC(=O)[C@@H](N)Cc2ccc(O)cc2)cc1 [Compound No. 6, trihydrochloride] | mice | 100 mg/kg
N=C(N)Nc1ccc(CCCC(=O)N[C@@H](CO)C(=O)NCCCCNCCCNC(=O)[C@@H](N)Cc2ccccc2)cc1 [Compound No. 5, trihydrochloride] | mice | 100 mg/kg
N=C(N)Nc1ccc(CCCC(=O)N[C@@H](CO)C(=O)NCCCCNCCCNC(=O)[C@@H](N)CC(=O)O)cc1 [Compound No. 7, trihydrochloride] | mice | 100 mg/kg
N=C(N)Nc1ccc(CCCC(=O)N[C@@H](CO)C(=O)NCCCCNCCCNC(=O)[C@H](N)c2ccccc2)cc1 [Compound No. 4, trihydrochloride] | mice | 100 mg/kg
CC(C)C[C@H](NC(=O)[C@@H](N)CC(C)C)C(=O)NCCCNCCCCNC(=O)[C@H](CO)NC(=O)CCCc1ccc(NC(=N)N)cc1 [Compound No. 13, trihydrochloride] | mice | 100 mg/kg
N=C(N)Nc1ccc(CCCC(=O)N[C@@H](CO)C(=O)NCCCCNCCCNC(=O)[C@@H](N)CO)cc1 [Compound No. 9, trihydrochloride] | mice | > 100 mg/kg
N=C(N)Nc1ccc(CCCC(=O)N[C@@H](CO)C(=O)NCCCCN(CCCNC(=O)[C@@H](N)c2ccccc2)C(=O)[C@@H](N)c2ccccc2)cc1 [Compound No. 14, trihydrochloride] | mice | 200 mg/kg
N=C(N)Nc1ccc(CCCC(=O)N[C@@H](CO)C(=O)NCCCCNCCCNC(=O)[C@@H](N)c2ccccc2)cc1 [Compound No. 1, trihydrochloride] | mice | 100 mg/kg
